Recorded values, source patent US8178690B2.

The entries below come with measured Ki values attached.
target: UniProt:P10415
Sequence (P10415 whole entry): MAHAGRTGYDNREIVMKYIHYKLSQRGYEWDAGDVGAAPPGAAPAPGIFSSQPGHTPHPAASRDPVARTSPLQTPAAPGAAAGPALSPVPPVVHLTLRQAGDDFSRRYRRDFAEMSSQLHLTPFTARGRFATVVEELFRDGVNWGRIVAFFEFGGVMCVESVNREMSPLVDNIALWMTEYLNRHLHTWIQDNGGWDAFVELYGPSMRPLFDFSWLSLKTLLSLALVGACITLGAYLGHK

- INPUT_SMILES: "COc1c(CN2O[C@@H](CN(C)C)[C@@H]([C@H](C)O)[C@H]2C(=O)N[C@H]2C[C@H]3C[C@@H]([C@@H]2C)C3(C)C)cccc1-c1cc(C(=O)NCCc2ccccc2)cc(N(C)C)c1"
  Ki: "5 to 9 nM"
- INPUT_SMILES: "COc1c(CN2O[C@@H](CN)[C@@H]([C@H](C)O)[C@H]2C(=O)N[C@H]2C[C@H]3C[C@@H]([C@@H]2C)C3(C)C)cccc1-c1cc(C(=O)N[C@H](CC(C)C)CN(C)C)cc(N(C)C)c1"
  Ki: "< 1 nM"
- INPUT_SMILES: "CNC(=O)c1cc(-c2cccc(CN3O[C@@H](CNCc4ccccn4)[C@@H]([C@H](C)O)[C@H]3C(=O)N[C@H]3C[C@H]4C[C@@H]([C@@H]3C)C4(C)C)c2OC)cc(N(C)C)c1"
  Ki: "> 9 nM"
- INPUT_SMILES: "CCN1CCC[C@@H]1CNC(=O)c1cc(-c2cccc(CN3O[C@@H](CO)[C@@H]([C@H](C)O)[C@H]3C(=O)N[C@H]3C[C@H]4C[C@@H]([C@@H]3C)C4(C)C)c2OC)cc(N(C)C)c1"
  Ki: "< 1 nM"

Sample CNC(=O)c1cc(-c2cccc(CN3O[C@@H](CN)[C@@H]([C@H](C)OC(=O)NCCc4ccccc4)[C@H]3C(=O)N[C@H]3C[C@H]4C[C@@H]([C@@H]3C)C4(C)C)c2OC)cc(N(C)C)c1 , system: UniProt:P10415. Its Ki is > 9 nM

###

pKi: −log10 of the molar value.
Record set of pKi for target or system Bcl-xL (Homo sapiens, UniProt Q07817).

- INPUT_SMILES: "COc1c(CN2O[C@@H](CN)[C@@H]([C@H](C)O)[C@H]2C(=O)N[C@H]2C[C@H]3C[C@@H]([C@@H]2C)C3(C)C)cccc1-c1cc(C(=O)N[C@@H](Cc2cscn2)C(=O)N(C)C)cc(N(C)C)c1"
  pKi: "5.00 to 5.30"

Here is the next item to consider.
Lab note: COc1c(CN2O[C@@H](CO)[C@@H]([C@H](C)O)[C@H]2C(=O)N[C@H]2C[C@H]3C[C@@H]([C@@H]2C)C3(C)C)cccc1-c1cc(C(=O)N[C@@H](CC(C)C)CN2CCN(C)CC2)cc(N(C)C)c1 gave pKi of > 6.00

###

Reported Ki is given for each of the following compounds.
target: Bcl-xL (Homo sapiens)

- COMPOUND: "COc1c(CN2O[C@@H](CO)[C@@H]([C@H](C)O)[C@H]2C(=O)N[C@H]2C[C@H]3C[C@@H]([C@@H]2C)C3(C)C)cccc1-c1cc(C(=O)N[C@@H](Cc2ccccc2)CN(C)C)cc(N(C)C)c1 [Compound 37]"
  VAL: "< 1000 nM"

compound COc1c(CN2O[C@@H](CO)[C@@H]([C@H](C)O)[C@H]2C(=O)N[C@H]2C[C@H]3C[C@@H]([C@@H]2C)C3(C)C)cccc1-c1cc(NC(C)=O)cc(C(=O)N[C@@H](CC(C)C)CN(C)C)c1 [Compound 262] , Ki observed: 1000 to 5000 nM

Reported Ki of CNC(=O)CN(C)c1cc(C(=O)N[C@@H](Cc2ccccc2)CN(C)C)cc(-c2cccc(CN3O[C@@H](CO)[C@@H]([C@H](C)O)[C@H]3C(=O)N[C@H]3C[C@H]4C[C@@H]([C@@H]3C)C4(C)C)c2OC)c1 [Compound 309] : < 1000 nM

Memo: COc1c(CN2O[C@@H](CO)[C@@H]([C@H](C)O)[C@H]2C(=O)N[C@H]2C[C@H]3C[C@@H]([C@@H]2C)C3(C)C)cccc1-c1cc(C(=O)N[C@@H](CC(C)C)CN2CCCC2)cc(N(C)C)c1 [Compound 320] , reported Ki: < 1000 nM

Kindly note the recorded Ki for C[C@@H]1[C@@H](NC(=O)[C@@H]2[C@H]([C@H](C)O)[C@H](CN)ON2Cc2cccc(-c3cc(C(=O)N[C@@H](Cc4ccccc4)CN(C)C)cc(N(C)C)c3)c2F)C[C@H]2C[C@@H]1C2(C)C [Compound 38] , which is > 10000 nM

Lookup result for COc1c(CN2O[C@@H](CN)[C@@H]([C@H](C)O)[C@H]2C(=O)N[C@H]2C[C@H]3C[C@@H]([C@@H]2C)C3(C)C)cccc1-c1cc(C(=O)N[C@H](CC(C)C)CN(C)C)cc(N(C)C)c1 [Compound 68] ; measured Ki: < 1000 nM

Notebook: COc1c(CN2O[C@@H](CO)[C@@H]([C@H](C)O)[C@H]2C(=O)N[C@H]2C[C@H]3C[C@@H]([C@@H]2C)C3(C)C)cccc1-c1cc2c(c(C(=O)N[C@H](CN(C)C)CC(C)(C)C)c1)OCC2 [Compound 256] , Ki read as < 1000 nM

Entry COc1c(CN2O[C@@H](CO)[C@@H]([C@H](C)O)[C@H]2C(=O)N[C@H]2C[C@H]3CC([C@@H]2C)C3(C)C)cccc1-c1cc(C(=O)N[C@@H](Cc2ccccc2)CN(C)C)cc(N2CCC[C@@H]2CO)c1 [Compound 296] , Ki reported as < 1000 nM

Ki measured on COc1c(CN2O[C@@H](CO)[C@@H]([C@H](C)O)[C@H]2C(=O)N[C@H]2C[C@H]3C[C@@H]([C@@H]2C)C3(C)C)cccc1-c1cc(C(=O)N[C@@H](CN(C)C)CS(=O)(=O)C(C)(C)C)cc(N(C)C)c1 [Compound 170] = 1000 to 5000 nM

The reported value for COc1c(CN2O[C@@H](CO)[C@@H]([C@H](C)O)[C@H]2C(=O)N[C@H]2C[C@H]3C[C@@H]([C@@H]2C)C3(C)C)cc(Cl)cc1-c1cc(C(=O)NCCc2ccccc2)cc(N(C)C)c1 [Compound 321] in terms of Ki is 5000 to 10000 nM

The recorded Ki for entry COc1c(CN2O[C@@H](CO)[C@@H]([C@H](C)O)[C@H]2C(=O)N[C@H]2C[C@H]3C[C@@H]([C@@H]2C)C3(C)C)cccc1-c1cc(C(=O)N2[C@H](CN(C)C)CC[C@@H]2c2ccccc2)cc(N(C)C)c1 [Compound 247] equals < 1000 nM

###

target: Bcl-xL (Homo sapiens)
Quick reference for Ki among some compounds

- INPUT_SMILES: "CNC(=O)c1cc(-c2cccc(CN3O[C@@H](CNC(=O)CCC(=O)OC)[C@@H]([C@H](C)O)[C@H]3C(=O)N[C@H]3C[C@H]4C[C@@H]([C@@H]3C)C4(C)C)c2OC)cc(N(C)C)c1"
  PROPERTY_MEASURED: "Ki"
  VAL: "5 to 10 µM"
- INPUT_SMILES: "CNC(=O)c1cc(-c2cccc(CN3O[C@@H](CNCc4ccc(C(=O)O)cc4)[C@@H]([C@H](C)O)[C@H]3C(=O)N[C@H]3C[C@H]4C[C@@H]([C@@H]3C)C4(C)C)c2OC)cc(N(C)C)c1"
  PROPERTY_MEASURED: "Ki"
  VAL: "> 10 µM"
- INPUT_SMILES: "CCOc1c(CN2O[C@@H](CO)[C@@H]([C@H](C)O)[C@H]2C(=O)N[C@H]2C[C@H]3C[C@@H]([C@@H]2C)C3(C)C)cccc1-c1cc(C(=O)N[C@H](CC(C)C)CN(C)C)cc(N(C)C)c1"
  PROPERTY_MEASURED: "Ki"
  VAL: "1 to 5 µM"
- INPUT_SMILES: "CNC(=O)c1cc(-c2cccc(CN3O[C@@H](CNC(=O)CCC(=O)O)[C@@H]([C@H](C)O)[C@H]3C(=O)N[C@H]3C[C@H]4C[C@@H]([C@@H]3C)C4(C)C)c2OC)cc(N(C)C)c1"
  PROPERTY_MEASURED: "Ki"
  VAL: "1 to 5 µM"

Continue with the next compound.
With Bcl-xL (Homo sapiens) as the test system, CNC(=O)c1cc(-c2cccc(CN3O[C@@H](CNCC(C)C)[C@@H]([C@H](C)O)[C@H]3C(=O)N[C@H]3C[C@H]4C[C@@H]([C@@H]3C)C4(C)C)c2OC)cc(N(C)C)c1 showed Ki of 5 to 10 µM

###

Entries below carry reported Ki on Bcl-xL (Homo sapiens, UniProt Q07817).
Sequence (Q07817 whole entry): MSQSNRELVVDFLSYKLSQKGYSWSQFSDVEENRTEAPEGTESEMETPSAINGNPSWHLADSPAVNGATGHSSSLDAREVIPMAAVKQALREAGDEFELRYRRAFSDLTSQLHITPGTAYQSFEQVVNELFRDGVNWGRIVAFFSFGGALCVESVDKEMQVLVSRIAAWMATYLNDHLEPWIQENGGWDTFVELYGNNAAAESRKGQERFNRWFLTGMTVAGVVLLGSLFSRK

Entry COc1c(CN2O[C@@H](CO)[C@@H]([C@H](C)O)[C@H]2C(=O)N[C@H]2C[C@H]3C[C@@H]([C@@H]2C)C3(C)C)cccc1-c1cc(C(=O)N[C@H](CN(C)C)[C@H](OC)c2ccccc2)cc(N(C)C)c1 [Compound 152] , tested on Bcl-xL (Homo sapiens, UniProt Q07817), has a reported Ki of < 1 µM
